B1: glmS ribozyme (parent)
chain: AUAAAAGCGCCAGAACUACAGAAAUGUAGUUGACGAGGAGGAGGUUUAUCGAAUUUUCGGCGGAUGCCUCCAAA

Variants of: B1
Assay summary: self-cleavage kobs at 2500 uM GlcN6P; higher = faster cleavage; RNA array
Condition summary: with glucosamine-6-phosphate
Fewer inactive variants are shown than the library holds.
Experimental readout: self-cleavage kobs at 2500 uM GlcN6P (s⁻¹)
Give the quantity in s⁻¹, number only.

Looking up A15C G66A , I see its self-cleavage kobs at 2500 uM GlcN6P listed as 0.00264

Field self-cleavage kobs at 2500 uM GlcN6P (entry A39U A53C ) reads 0.00228

Entry U31A A39G C67U — recorded self-cleavage kobs at 2500 uM GlcN6P = 0.00111

Value of measured self-cleavage kobs at 2500 uM GlcN6P for the entry U31G G32A U56G : 9.1e-05

Value of self-cleavage kobs at 2500 uM GlcN6P reported for the variant G13U C16U is 0.00139

Memo: U45A U56G , reported self-cleavage kobs at 2500 uM GlcN6P: 0.0272

The variant listed as U65C C67U shows self-cleavage kobs at 2500 uM GlcN6P equal to 7.62e-05

Form: variant = G29U C68G ; self-cleavage kobs at 2500 uM GlcN6P = 3.95e-05

G29U A42G A53U has a reported self-cleavage kobs at 2500 uM GlcN6P of 0.00271

Per the record, A15U U46C has self-cleavage kobs at 2500 uM GlcN6P of 0.000249

Measured self-cleavage kobs at 2500 uM GlcN6P, A12G U47G : 0.000266

Item: A14G G29C U56A | self-cleavage kobs at 2500 uM GlcN6P: 0.000647

# self-cleavage kobs at 2500 uM GlcN6P (variant: G29U G32U C58U C67A ) is 8.93e-05

# self-cleavage kobs at 2500 uM GlcN6P of A15G C67A C71U = 0.000455

Looking up U31G C68A , I found its self-cleavage kobs at 2500 uM GlcN6P recorded as 8.49e-05

response.value for A39C A52U (field: self-cleavage kobs at 2500 uM GlcN6P) = 4.62e-05

Notebook: A14G U31C G40U U55A , self-cleavage kobs at 2500 uM GlcN6P read as 0.0012

Measured self-cleavage kobs at 2500 uM GlcN6P, G29U G38C C58G C68A C71A : 8.03e-05

Note to self: self-cleavage kobs at 2500 uM GlcN6P recorded for A12G A14U G66A was 6.8e-05

Value of self-cleavage kobs at 2500 uM GlcN6P reported for the variant A52G U57G C58U is 4.96e-05

Reported self-cleavage kobs at 2500 uM GlcN6P of C16G U30C : 7.58e-05

Entry G40A G41U — recorded self-cleavage kobs at 2500 uM GlcN6P = 5.29e-05
